targetEntity: human ether-à-go-go-related gene (hERG) potassium channel (human);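 note: peak tail current of the secondary pulse compared with the same well before compound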
Sequence (Q12809 whole entry, looked up): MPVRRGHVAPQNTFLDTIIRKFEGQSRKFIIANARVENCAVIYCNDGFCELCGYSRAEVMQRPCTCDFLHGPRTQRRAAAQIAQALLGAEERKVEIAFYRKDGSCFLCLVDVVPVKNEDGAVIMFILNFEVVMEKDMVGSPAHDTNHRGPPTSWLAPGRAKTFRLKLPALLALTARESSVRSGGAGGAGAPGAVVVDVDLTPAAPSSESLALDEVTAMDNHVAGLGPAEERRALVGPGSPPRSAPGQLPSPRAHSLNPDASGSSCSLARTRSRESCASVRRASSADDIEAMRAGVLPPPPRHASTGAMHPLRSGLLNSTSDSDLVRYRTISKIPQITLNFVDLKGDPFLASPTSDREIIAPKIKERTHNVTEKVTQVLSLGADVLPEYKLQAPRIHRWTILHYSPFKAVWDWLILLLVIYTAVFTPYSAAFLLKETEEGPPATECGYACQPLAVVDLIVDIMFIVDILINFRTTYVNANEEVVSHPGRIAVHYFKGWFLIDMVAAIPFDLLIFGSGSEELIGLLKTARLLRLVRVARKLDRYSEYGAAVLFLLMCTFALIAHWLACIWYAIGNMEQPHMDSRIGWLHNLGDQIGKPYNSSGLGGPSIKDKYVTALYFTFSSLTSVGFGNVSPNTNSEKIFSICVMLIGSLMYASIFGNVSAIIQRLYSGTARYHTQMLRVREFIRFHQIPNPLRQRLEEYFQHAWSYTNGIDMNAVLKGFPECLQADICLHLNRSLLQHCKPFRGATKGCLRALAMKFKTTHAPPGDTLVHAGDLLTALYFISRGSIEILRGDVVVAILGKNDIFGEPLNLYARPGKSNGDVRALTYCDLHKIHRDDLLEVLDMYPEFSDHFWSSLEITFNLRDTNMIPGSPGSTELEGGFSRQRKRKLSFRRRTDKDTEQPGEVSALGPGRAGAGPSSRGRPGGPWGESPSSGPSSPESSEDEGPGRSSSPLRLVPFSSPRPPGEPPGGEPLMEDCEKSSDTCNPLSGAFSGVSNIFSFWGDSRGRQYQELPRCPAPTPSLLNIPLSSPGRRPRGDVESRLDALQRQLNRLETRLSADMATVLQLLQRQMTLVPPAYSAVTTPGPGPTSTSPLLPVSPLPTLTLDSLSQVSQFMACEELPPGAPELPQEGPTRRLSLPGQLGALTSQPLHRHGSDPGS
protocolDescription: primary screen, population patch clamp on CHO cells stably expressing hERG; higher = less effect of the substance
In all, about 310,000 compounds went through this assay and about 14,000 (4.5%) showed an effect of 50% or more. The effect is printed as a negative number. This is one part of a sample in which strong results are shown more often than they occur.
Give measured hERG current change (%, negative = inhibition) at 10uM for each item. Keep answers brief.
Reply numerically in %, unit not repeated.

Enquiry: I am curious: what hERG current change (%, negative = inhibition) at 10uM value has been reported for Nc1nc(-c2ccc3c(c2)NC(=O)CO3)cs1 ?
Return: 15.5

Enquiry: Now consider Cc1cccc(C(=O)Oc2ccccc2/C=N/NC(=O)c2ccc(NC(=O)C(C)(C)C)cc2)c1 and answer again.
Return: -4.88

Enquiry: Now consider O=C(CCCc1nc2ccccc2s1)N1CCN(c2ccccc2F)CC1 and answer again.
Return: -31.3

Enquiry: Now consider CCN(CC)CCOC(=O)C1(c2ccc(OC)c(OC)c2)CCCC1.Cl and answer again.
Return: -16.9

Enquiry: Now consider COc1ccc(Cl)cc1Nc1nc(C)cc(C)c1C(N)=O and answer again.
Return: 14.3

Enquiry: Now consider CCN(CC)C(=O)CSc1nnc2sc3ccccc3n12 and answer again.
Return: 14.8

Enquiry: Now consider CN1CCN(S(=O)(=O)c2ccc(Nc3cccc(Cl)c3)c([N+](=O)[O-])c2)CC1 and answer again.
Return: -20.7

Enquiry: Now consider CCC1CCCCN1C(=O)CCn1c(=O)oc2ccccc21 (stereo not shown) and answer again.
Return: -17.7

Enquiry: Now consider CN1CCN(S(=O)(=O)c2ccc(Nc3ccc(F)cc3)c([N+](=O)[O-])c2)CC1 and answer again.
Return: -51.3

Enquiry: Now consider O=Cc1sc(Nc2ccccc2)nc1Cl and answer again.
Return: -13.1
